I'd appreciate it if you could supply TGI values for the items below.
# System: COLO 205 colon
# Test name: NCI tumour cell line growth inhibition, 48 h

Ask | Query TGI for c1ccc2c(NCCCCCCCCNc3c4ccccc4nc4ccccc34)c3ccccc3nc2c1
Reply | 1.61 µM

Ask | Read the entry CC[C@H]1C=CCC[C@@]2(C[C@@H]3CC[C@@H]4[C@H](C(=O)OCCCCCCCCCCCCCCCC(=O)N(CCCN)C[C@@H](O)CCN)[C@]5(CCC[C@@H](C)O5)NC(=[N+]34)N2)O1 and write its reported TGI.
Reply | 1.65 µM

Ask | Assign TGI to the following record: CC(=O)C(=C(I)I)c1ccccc1
Reply | 28.9 µM

Ask | Output measured TGI for this item: O=C(O)C(Cc1ccc(O)c([N+](=O)[O-])c1)N1C(=O)c2ccccc2C1=O (stereo not drawn)
Reply | > 100 µM

Ask | Read the entry C/C(=C\CCC1=CC(=O)OC1)CC[C@@H]1[C@H]2C(=O)CC(C)[C@@]3(C)CC[C@]1(C)[C@@]23C (stereo partly drawn) and write its reported TGI.
Reply | > 10 µM

Ask | Identify the reported TGI for the following entry. O=C(CSc1nc2ccc(I)cc2c(=O)n1Cc1ccccc1)Nc1ccc(Br)cc1
Reply | > 100 µM

Ask | Using known records, supply TGI for O=C(N/N=C/c1ccc(F)cc1)c1[nH]c2ccc(I)cc2c1-c1ccccc1
Reply | 1.7 µM

Ask | Check the records and state TGI for CCCN(CCC)c1c([N+](=O)[O-])cc(S(N)(=O)=O)cc1[N+](=O)[O-]
Reply | 43.1 µM

----------
# Test system: NCI-H23 lung
# Test name: NCI tumour cell line growth inhibition, 48 h
Give TGI for every item shown.

Ask | Give the reported TGI for this compound. CCN(CC)CC(C)Nc1ccc(C)c2sc3ccccc3c(=O)c12 (stereo not drawn)
Reply | 19.8 µM

Ask | Please indicate TGI recorded for CCN(CC)CCNc1ccc(N=Nc2ccc(S(N)(=O)=O)cc2)c2ccccc12
Reply | 50.7 µM

Ask | Determine its reported TGI: O=C1NC(N2CCOCC2)=N/C1=C\c1ccccc1O
Reply | > 100 µM

Ask | Specify TGI for CCCN(CCC)c1c([N+](=O)[O-])cc(S(N)(=O)=O)cc1[N+](=O)[O-] and stop.
Reply | 32.3 µM

Ask | Tell me TGI reported for Cc1ccc2c(c1)sc(-c1ccc(N(C)C)cc1)[n+]2C
Reply | > 48.8 µM

Ask | Report TGI for CO[P@]1(=O)O[C@@H](c2ccccc2)[C@H](O)[C@]1(O)c1ccccc1
Reply | > 100 µM

Ask | Annotate the compound ClCCn1cnc2c(SCc3ccccc3)ncnc21 with its measured TGI.
Reply | > 100 µM

Ask | Answer with the recorded TGI of CCCCCc1c(CCCC)c(=O)[nH]c2cc(CNCC(OC)OC)ccc12 only.
Reply | 32.8 µM

Ask | Fill in TGI for record CC/C=C\C[C@H](O)C/C=C1/C(=O)C=C[C@@H]1C/C=C\CCCC(N)=O
Reply | 5.27 µM

Ask | Answer with the recorded TGI for the compound listed here: O=C(O)C(Cc1cccs1)C(=O)O
Reply | > 100 µM

Ask | Specify TGI for C=C[C@H]1CN2CC[C@H]1C[C@@H]2[C@@H](O)c1ccnc2ccccc12 and stop.
Reply | > 100 µM

Ask | Quote TGI reported for Fc1cccc2nc(-c3ccccc3)cc(OCc3ccccc3)c12 please.
Reply | > 100 µM

Ask | Return reported TGI. Input compound: CN(C)CCNC(=O)c1cc([N+](=O)[O-])cc2ccc(-c3ccccc3)nc12
Reply | 27.6 µM

Ask | Provide TGI value for the following compound: COc1ccc(CN=CN/C(C#N)=C(\N)C#N)cc1OC
Reply | > 100 µM

Ask | Entry Cc1nc2ccccc2n1CCc1nc2ccccc2s1 needs its TGI filled in; supply it.
Reply | > 100 µM

Ask | Supply measured TGI of CCCCNC(=S)Nc1nc(C(=O)NNS(=O)(=O)c2ccccc2)cs1 in your reply.
Reply | > 100 µM

Ask | Report TGI for Nc1ccc2c(c1)[O][Sn]([c]1ccccc1)([c]1ccccc1)[O]C2=O
Reply | 8.58 µM

Ask | Annotate the compound CCCCc1cc(O)ccc1O with its measured TGI.
Reply | > 100 µM

Ask | Look up and state reported TGI for c1ccc(N=NNNc2ccc(-c3nc4ccccc4[nH]3)cc2)cc1
Reply | > 100 µM

Ask | Could you please provide reported TGI for COc1cc(C2c3cc4c(cc3OC(N3CCOCC3)C2C)OCO4)cc(OC)c1O (stereo not drawn) ? Thanks!
Reply | > 100 µM

Ask | Return TGI for the following compound: O=C1c2cccc3cc([N+](=O)[O-])cc(c23)C(=O)N1CCCN1CCN(CCCN2C(=O)c3cccc4cc([N+](=O)[O-])cc(c34)C2=O)CC1
Reply | 7.64 µM

Ask | Entry CCCCCCCCOCC1S(=O)(=O)OCCOS1(=O)=O needs its TGI filled in; supply it.
Reply | > 100 µM

Ask | Report TGI, nothing else, for this compound: CC(C)(C)C([O-])=C1C(=O)c2ccccc2C1=O.CC(C)(C)C([O-])=C1C(=O)c2ccccc2C1=O.CC[O-].CC[O-].[Ti+4]
Reply | > 100 µM

Ask | Indicate its recorded TGI; the compound in question is COC(=O)c1ccc(OCc2ccc3oc(=O)c(-c4ccccc4)nc3c2)cc1
Reply | > 100 µM

Ask | Indicate its recorded TGI; the compound in question is O=c1oc2c3ccc4ccccc4c3n(Cc3nc4ccccc4[nH]3)c2c2ccccc12
Reply | > 100 µM

Ask | Please report the measured TGI for O=C1/C(=C\c2cccs2)Oc2ccccc21
Reply | > 100 µM

Ask | Supply TGI value. Item: N#C/C(=C(\O)C(=O)O)c1ccc(-c2cccc3ccccc23)cc1
Reply | > 100 µM

Ask | Item Cc1cc(O)cc(C)c1/C=C/c1cncc(C(=O)N(C)C)c1 : provide TGI
Reply | > 25 µM

Ask | Provide one value: measured TGI of CCOC(=O)C(=O)Nc1c(C)cccc1CC
Reply | > 100 µM

Ask | Answer with the recorded TGI for the compound listed here: S=C1CC(c2ccc(Cl)cc2)Sc2ccccc2N1 (stereo not drawn)
Reply | > 100 µM

Ask | Give me measured TGI, please, for this compound: CCN(CC)C(=O)CCCCCCCCC1CO1 (stereo not drawn)
Reply | > 100 µM

Ask | Using the record for CC1(C)C2CCC1C(=O)C(C=O)C2 (stereo not drawn) , state its measured TGI.
Reply | > 100 µM

Ask | Supply TGI value. Item: CCOC(=O)/C=C(/CN1C(=O)c2ccccc2C1=O)c1ccccc1
Reply | > 100 µM

Ask | Give TGI for the following compound: C=C(CNCCO)[C@@H]1CC[C@]2(CO)CC[C@]3(C)[C@H](CC[C@@H]4[C@@]5(C)CCC(NCCc6ccc(O)cc6)C(C)(C)[C@@H]5CC[C@]43C)[C@@H]12 (stereo partly drawn)
Reply | 3.45 µM

Ask | Identify TGI associated with the compound O=C1/C(=C/c2cccs2)N=C(c2ccccc2)N1C1Nc2cc3c(cc2S1)NC(N1C(=O)/C(=C/c2cccs2)N=C1c1ccccc1)S3 (stereo not drawn)
Reply | 43.6 µM

Ask | Return value of TGI for input COc1ccc2c(c1)CC[C@@H]1[C@@H]2CC[C@]2(C)/C(=N/OCCN3CCCCC3)CC[C@@H]12 , no commentary.
Reply | 25 µM

Ask | Note down TGI recorded for C=CCN(N=O)C(=O)N(CCC)CCCC(NC(C)=O)C(=O)NCc1ccccc1 (stereo not drawn)
Reply | > 100 µM

Ask | Using the record for CCN1C/C(=C\c2ccc(Cl)cc2)C2=NN(c3ccccc3)C(c3ccc(Cl)cc3)C2C1 (stereo not drawn) , state its measured TGI.
Reply | > 100 µM

Ask | Quick one: give measured TGI for Clc1ccc(-c2nc(-c3ccc(Cl)cc3)[s+]s2)cc1
Reply | > 100 µM

Ask | Note down TGI recorded for C=C1C(=O)O[C@H]2[C@H]1CC/C(COC(=O)c1ccc(C(=O)O)s1)=C\CC[C@@]1(C)O[C@@H]21
Reply | 11.8 µM

Ask | Give the reported value of TGI for this record: CN(C)CCNc1cccc2sc3ccc(O)cc3c(=O)c12
Reply | 17 µM

Ask | Give reported TGI value for c1ccc2c(c1)SC1Sc3ccccc3[S+]21 (stereo not drawn)
Reply | 37.4 µM

Ask | Name the recorded TGI of the compound listed here: COc1ccc([N+](=O)[O-])c2c(NCC(O)CO)ccnc12 (stereo not drawn)
Reply | 40.4 µM

Data origin, for the record: PubChem BioAssay (NCI)
